I'd be grateful if you could share measured relative viability for these entries.
- Test system: PC-3 [JPC-3]
- Test Protocol: relative viability (nuclei count vs DMSO), 5 days (fraction); higher = more cells survive
- Test Context: first compound 0.1581 µM

The reported PC-3 [JPC-3] relative viability of COc1cc2nccc(Oc3ccc(NC(=O)Nc4cc(C)on4)c(Cl)c3)c2cc1OC [Tivozanib] + CC(=O)Nc1cccc(-n2c(=O)n(C3CC3)c(=O)c3c(Nc4ccc(I)cc4F)n(C)c(=O)c(C)c32)c1 [Trametinib] (partner 0.02 µM) is 0.674

The reported PC-3 [JPC-3] relative viability of COc1cc2nccc(Oc3ccc(NC(=O)Nc4cc(C)on4)c(Cl)c3)c2cc1OC [Tivozanib] + C[C@@H](Oc1cc(-c2cnn(C3CCNCC3)c2)cnc1N)c1c(Cl)ccc(F)c1Cl [Crizotinib] (partner 1 µM) is 1.02

The reported PC-3 [JPC-3] relative viability of COc1cc2nccc(Oc3ccc(NC(=O)Nc4cc(C)on4)c(Cl)c3)c2cc1OC [Tivozanib] + NC(=O)Nc1cc(-c2cccc(F)c2)sc1C(=O)N[C@H]1CCCNC1 [AZD7762] (partner 0.2 µM) is 0.741

The measured values listed here are drawn from the supplement of paper PMC10307832.
